studyTarget: m4 muscarinic receptor subtype (Homo sapiens)
Construct: expressed in transfected cells; host or cells: NIH-3T3 (ATCC CRL 1658)
experimentDescription: R-SAT assay, muscarinic receptor subtype m4
Type: cell-based
conditionContext: transfected NIH-3T3 cells, 5 days, relative to maximum response to carbachol
Experimental: Transfected cells were grown in the presence of between 1 nM and 40 μM of the test compound for 5 days. On day 5, the cells were lysed using 0.5% Nonidet-P and β-galactosidase expression was quantified using the chromogenic substrate o-nitrophenyl-β-D-galactoside (ONGP). […]
Rule: m4 % Eff of 70% or more gives Fulfilled; anything lower gives Not fulfilled.

As a guide, the following entries are already answered.
compound	studyTarget	classification
CCCCC1CCN(CCCn2c(C)cc3ccccc32)CC1 [Example 77]	m4 muscarinic receptor subtype (Homo sapiens)	Fulfilled
CCCCC1CCN(CCCc2noc3ccccc23)CC1 [Example 24]	m4 muscarinic receptor subtype (Homo sapiens)	Not fulfilled
CCCCC=C1CCN(CCCn2ncc3ccccc32)CC1 [Example 43]	m4 muscarinic receptor subtype (Homo sapiens)	Not fulfilled
CCCCC1CCN(CCCn2nc(Cl)c3ccccc32)CC1 [Example 65]	m4 muscarinic receptor subtype (Homo sapiens)	Not fulfilled
CCCCC1CCN(CCCn2nnc3ccccc32)CC1 [Example 61]	m4 muscarinic receptor subtype (Homo sapiens)	Not fulfilled

Now turn to the next compound.
Q: Please check the record CCCCC1CCN(CCCc2n[nH]c3ccccc23)CC1.Cl [Example 89] and state if its m4 % Eff is at or above 70%.
Result: Not fulfilled

---

studyTarget: m5 muscarinic receptor subtype (Homo sapiens, UniProt P08912)
Construct: expressed in transfected cells; host or cells: NIH-3T3 (ATCC CRL 1658)
Sequence (P08912 whole entry): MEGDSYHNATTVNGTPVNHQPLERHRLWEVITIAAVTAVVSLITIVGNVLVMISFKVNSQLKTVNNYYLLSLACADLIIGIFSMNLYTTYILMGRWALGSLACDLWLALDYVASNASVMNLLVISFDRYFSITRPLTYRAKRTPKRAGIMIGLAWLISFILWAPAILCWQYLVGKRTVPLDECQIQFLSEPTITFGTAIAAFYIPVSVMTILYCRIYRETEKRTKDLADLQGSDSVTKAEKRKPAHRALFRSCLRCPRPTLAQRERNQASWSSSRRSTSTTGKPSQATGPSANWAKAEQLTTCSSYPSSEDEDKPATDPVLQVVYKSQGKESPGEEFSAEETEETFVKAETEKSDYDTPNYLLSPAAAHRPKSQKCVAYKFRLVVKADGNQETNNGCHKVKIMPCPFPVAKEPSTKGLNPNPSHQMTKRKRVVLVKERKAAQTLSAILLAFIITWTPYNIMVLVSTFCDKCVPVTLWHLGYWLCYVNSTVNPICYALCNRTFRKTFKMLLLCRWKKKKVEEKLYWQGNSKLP
experimentDescription: R-SAT assay, muscarinic receptor subtype m5
Format: cell-based
conditionContext: transfected NIH-3T3 cells, 5 days, relative to maximum response to carbachol
outcomeMeasure: m5 % Eff

Q: Provide the reported m5 % Eff (system: m5 muscarinic receptor subtype (Homo sapiens, UniProt P08912)) for "CCCC1CCN(CCCn2ncc3ccccc32)CC1"
Result: 31%

---

Listing of entries alongside the reported m1 pEC50.
studyTarget: m1 muscarinic receptor subtype (Homo sapiens)
Construct: expressed in transfected cells; host or cells: NIH-3T3 (ATCC CRL 1658)
Sequence (P11229 whole entry): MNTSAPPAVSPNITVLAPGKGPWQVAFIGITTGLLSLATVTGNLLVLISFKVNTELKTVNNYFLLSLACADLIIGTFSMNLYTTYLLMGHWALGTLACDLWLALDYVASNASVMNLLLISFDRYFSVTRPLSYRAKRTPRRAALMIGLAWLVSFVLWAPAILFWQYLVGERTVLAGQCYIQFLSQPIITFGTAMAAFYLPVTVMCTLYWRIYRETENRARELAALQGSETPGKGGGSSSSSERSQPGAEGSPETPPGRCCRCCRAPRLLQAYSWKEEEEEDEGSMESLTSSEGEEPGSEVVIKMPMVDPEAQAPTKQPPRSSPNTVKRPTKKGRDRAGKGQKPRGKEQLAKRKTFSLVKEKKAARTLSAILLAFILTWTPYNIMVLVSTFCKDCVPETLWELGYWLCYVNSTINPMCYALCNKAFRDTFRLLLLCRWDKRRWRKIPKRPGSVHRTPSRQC
experimentDescription: R-SAT assay, muscarinic receptor subtype m1
Format: cell-based
conditionContext: transfected NIH-3T3 cells, 5 days

Q: Name the recorded m1 pEC50 of the molecule listed here: CCCCC1CCN(CCCn2c(C)cc3ccccc32)CC1 [Example 77]
Result: 7.0

Q: Name the recorded m1 pEC50 of the molecule listed here: CCCCC1CCN(CCCc2n[nH]c3ccccc23)CC1.Cl [Example 89]
Result: 7.3

Q: Name the recorded m1 pEC50 of the molecule listed here: CCC=C1CCN(CCCn2ncc3ccccc32)CC1 [Example 44]
Result: 6.1

Q: Name the recorded m1 pEC50 of the molecule listed here: CCCCC1CCN(CCCc2nc3c([N+](=O)[O-])cccc3[nH]2)CC1 [Example 28]
Result: 6.5

Q: Name the recorded m1 pEC50 of the molecule listed here: CCCCC1CCN(CCCn2nc(Cl)c3ccccc32)CC1 [Example 65]
Result: 6.0

Q: Name the recorded m1 pEC50 of the molecule listed here: CC(C)CCC1CCN(CCCn2ncc3ccccc32)CC1 [Example 42]
Result: 7.1

Q: Name the recorded m1 pEC50 of the molecule listed here: CCCCC1CCN(CCCn2ncc3ccccc32)CC1 [Example 19]
Result: 7.3

Q: Name the recorded m1 pEC50 of the molecule listed here: CCCCC1CCN(CCCn2ccc3ccccc32)CC1 [Example 12]
Result: 5.9

Q: Name the recorded m1 pEC50 of the molecule listed here: CCCCC1CCN(CCCn2nnc3ccccc32)CC1 [Example 61]
Result: 6.3

---

studyTarget: m4 muscarinic receptor subtype (Homo sapiens, UniProt P08173)
Construct: expressed in transfected cells; host or cells: NIH-3T3 (ATCC CRL 1658)
Sequence (P08173 whole entry): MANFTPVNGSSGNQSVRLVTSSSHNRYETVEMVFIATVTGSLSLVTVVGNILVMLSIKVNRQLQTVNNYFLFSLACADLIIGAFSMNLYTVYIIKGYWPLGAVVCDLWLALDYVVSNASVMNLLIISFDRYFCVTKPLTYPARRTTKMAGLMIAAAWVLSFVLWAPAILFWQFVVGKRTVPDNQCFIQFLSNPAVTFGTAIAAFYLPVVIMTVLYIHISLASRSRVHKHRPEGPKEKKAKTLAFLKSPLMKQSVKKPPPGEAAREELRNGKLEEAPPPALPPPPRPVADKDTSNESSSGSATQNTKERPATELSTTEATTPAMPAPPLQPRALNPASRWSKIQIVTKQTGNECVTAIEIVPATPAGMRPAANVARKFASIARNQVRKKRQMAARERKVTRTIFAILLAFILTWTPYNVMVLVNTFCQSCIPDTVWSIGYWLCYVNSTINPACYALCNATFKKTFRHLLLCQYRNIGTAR
experimentDescription: R-SAT assay, muscarinic receptor subtype m4
Format: cell-based
conditionContext: transfected NIH-3T3 cells, 5 days, relative to maximum response to carbachol
Listing of entries alongside the reported m4 % Eff.

CCCC1CCN(CCCn2ncc3ccccc32)CC1 69%

# next molecule below
Q: Name the recorded m4 % Eff of the molecule listed here: "CCCCC1CCN(CCCn2ncc3ccccc32)CC1"
Result: 70%
